# study.target: Methionine--tRNA ligase, mitochondrial (Homo sapiens)
# protocol: human mitochondrial MetRS inhibition, late-stage follow-up, selectivity assay for T. brucei MetRS inhibitor project, biochemical, radioactivity, round 3 (AID 1053199)
# assay.context: recombinant human mitochondrial MetRS, [3H]Met aminoacylation; at 10 µM; stronger effect = higher value
inhibition overview
Quick note: give the figure in %, leave out the unit.

(Q) Look up inhibition with Methionine--tRNA ligase, mitochondrial (Homo sapiens) for this compound: O=C(Cc1ccc(Nc2nc3ccc(Br)cc3[nH]2)cc1)NCCc1cccs1
(A) 0.91

(Q) Thanks! And CCN(CC)C(=O)C(=O)c1cn(CCNc2cccc(C(F)(F)F)c2)c2ccccc12 ?
(A) 0.1

(Q) Thanks! And CCN(CC)C(=O)C(=O)c1cn(CC(=O)Nc2cc(Oc3ccccc3F)cc(C(F)(F)F)c2)c2ccccc12 ?
(A) -4.45

(Q) Thanks! And Nc1c(Cl)ncnc1Nc1ccc(C(=O)O)cc1 ?
(A) 6.59

(Q) Thanks! And CCN(CC)C(=O)C(=O)c1cn(CC(=O)Nc2cc(Oc3ccc(F)cc3)cc(C(F)(F)F)c2)c2ccccc12 ?
(A) 7.56

---
(Q) Look up inhibition with Methionine--tRNA ligase, mitochondrial (Homo sapiens) for this compound: CCN(CC)C(=O)C(=O)c1cn(CC(=O)Nc2cc(Oc3ccccc3OC)cc(C(F)(F)F)c2)c2ccccc12
(A) 6.34

(Q) Thanks! And CCN(CC)C(=O)C(=O)c1cn(CC(=O)Nc2cc(Oc3ccc(OC)cc3)cc(C(F)(F)F)c2)c2ccccc12 ?
(A) -1.74

(Q) Thanks! And CCN(CC)C(=O)Cc1cn(CC(=O)Nc2cccc(C(F)(F)F)c2)c2ccccc12 ?
(A) -11.2

(Q) Thanks! And CCN(CC)C(=O)C(=O)c1cn(CCNc2cc(Oc3ccccc3)cc(C(F)(F)F)c2)c2ccccc12 ?
(A) 2.68

(Q) Thanks! And O=C(Cn1cc(C(=O)C(=O)NCc2ccccc2)c2ccccc21)Nc1cc(Oc2ccccc2)cc(C(F)(F)F)c1 ?
(A) -8.53
